Tested on: SK-MEL-5 melanoma
Experiment: NCI-60 one-dose screen, 48 h
Settings: 10 µM unless noted
This is part of a sample that, as a whole, favours compounds with a hit. Of some 83,000 tested, about 20% had one in any assay. Activity calls are given as the source filed them. Rule for the calls: active = growth percent below 10; inactive = the rest.
// allowed return values: active, inactive

CCC(=C(c1ccc(OCCN2CCCCC2)cc1)c1ccc(OCCN2CCCCC2)cc1)c1ccc(Cl)cc1; active
c1cnc2c(-c3nc4ccc5[nH]ncc5c4c4c3CCCC4)c[nH]c2c1; inactive

Just curious, what result did CCN1CCN(C(=O)[C@]23CCC(C)(C)C[C@@H]2C2=CC[C@@H]4[C@@]5(C)CCC(=O)C(C)(C)[C@@H]5CC[C@@]4(C)[C@]2(C)CC3)CC1 get here?
inactive
